List of relative viability values.
Tested on: LCLC-97TM1
MEASUREMENT NOTES: relative viability (nuclei count vs DMSO), 5 days (fraction); higher = more cells survive
MEASUREMENT CONTEXT: first compound 0.05 µM
Enter a number only.

CC1(C)CCC(c2ccc(Cl)cc2)=C(CN2CCN(c3ccc(C(=O)NS(=O)(=O)c4ccc(N[C@H](CCN5CCOCC5)CSc5ccccc5)c(S(=O)(=O)C(F)(F)F)c4)cc3)CC2)C1 [Navitoclax] + O=C(c1cc(Cc2n[nH]c(=O)c3ccccc23)ccc1F)N1CCN(C(=O)C2CC2)CC1 [Olaparib] (partner 8 µM) | 0.243
CC1(C)CCC(c2ccc(Cl)cc2)=C(CN2CCN(c3ccc(C(=O)NS(=O)(=O)c4ccc(N[C@H](CCN5CCOCC5)CSc5ccccc5)c(S(=O)(=O)C(F)(F)F)c4)cc3)CC2)C1 [Navitoclax] + C[C@]1(O)C[C@@H](c2nc(-c3ccc4ccc(-c5ccccc5)nc4c3)c3c(N)nccn32)C1 [Linsitinib] (partner 1 µM) | 0.193
CC1(C)CCC(c2ccc(Cl)cc2)=C(CN2CCN(c3ccc(C(=O)NS(=O)(=O)c4ccc(N[C@H](CCN5CCOCC5)CSc5ccccc5)c(S(=O)(=O)C(F)(F)F)c4)cc3)CC2)C1 [Navitoclax] + COc1cc2c(Oc3ccc(NC(=O)C4(C(=O)Nc5ccc(F)cc5)CC4)cc3F)ccnc2cc1OCCCN1CCOCC1 [Foretinib] (partner 0.25 µM) | 0.831

Consider the record given below.
For the record CC1(C)CCC(c2ccc(Cl)cc2)=C(CN2CCN(c3ccc(C(=O)NS(=O)(=O)c4ccc(N[C@H](CCN5CCOCC5)CSc5ccccc5)c(S(=O)(=O)C(F)(F)F)c4)cc3)CC2)C1 [Navitoclax] + NC(=O)Nc1cc(-c2cccc(F)c2)sc1C(=O)N[C@H]1CCCNC1 [AZD7762] (partner 0.2 µM) , what value of relative viability is listed for LCLC-97TM1? 0.181
